target: human TRPM8 (Homo sapiens, UniProt Q7Z2W7); construct: expressed in transfected cells; host or cells: Chinese hamster ovary (CHO) cells, T-REx tetracycline-inducible expression system (Invitrogen); co-transfected with pcDNA3.1 aequorin; assay: Luminescence readout assay for measuring intracellular calcium (aequorin, CHO cells expressing human TRPM8; icilin, L-menthol or cold activation); format: cell-based; conditions: CHO cells expressing human TRPM8, icilin activation (1 μM), aequorin luminescence; read-out: hTRPM8 IC50
Sequence (Q7Z2W7 whole entry): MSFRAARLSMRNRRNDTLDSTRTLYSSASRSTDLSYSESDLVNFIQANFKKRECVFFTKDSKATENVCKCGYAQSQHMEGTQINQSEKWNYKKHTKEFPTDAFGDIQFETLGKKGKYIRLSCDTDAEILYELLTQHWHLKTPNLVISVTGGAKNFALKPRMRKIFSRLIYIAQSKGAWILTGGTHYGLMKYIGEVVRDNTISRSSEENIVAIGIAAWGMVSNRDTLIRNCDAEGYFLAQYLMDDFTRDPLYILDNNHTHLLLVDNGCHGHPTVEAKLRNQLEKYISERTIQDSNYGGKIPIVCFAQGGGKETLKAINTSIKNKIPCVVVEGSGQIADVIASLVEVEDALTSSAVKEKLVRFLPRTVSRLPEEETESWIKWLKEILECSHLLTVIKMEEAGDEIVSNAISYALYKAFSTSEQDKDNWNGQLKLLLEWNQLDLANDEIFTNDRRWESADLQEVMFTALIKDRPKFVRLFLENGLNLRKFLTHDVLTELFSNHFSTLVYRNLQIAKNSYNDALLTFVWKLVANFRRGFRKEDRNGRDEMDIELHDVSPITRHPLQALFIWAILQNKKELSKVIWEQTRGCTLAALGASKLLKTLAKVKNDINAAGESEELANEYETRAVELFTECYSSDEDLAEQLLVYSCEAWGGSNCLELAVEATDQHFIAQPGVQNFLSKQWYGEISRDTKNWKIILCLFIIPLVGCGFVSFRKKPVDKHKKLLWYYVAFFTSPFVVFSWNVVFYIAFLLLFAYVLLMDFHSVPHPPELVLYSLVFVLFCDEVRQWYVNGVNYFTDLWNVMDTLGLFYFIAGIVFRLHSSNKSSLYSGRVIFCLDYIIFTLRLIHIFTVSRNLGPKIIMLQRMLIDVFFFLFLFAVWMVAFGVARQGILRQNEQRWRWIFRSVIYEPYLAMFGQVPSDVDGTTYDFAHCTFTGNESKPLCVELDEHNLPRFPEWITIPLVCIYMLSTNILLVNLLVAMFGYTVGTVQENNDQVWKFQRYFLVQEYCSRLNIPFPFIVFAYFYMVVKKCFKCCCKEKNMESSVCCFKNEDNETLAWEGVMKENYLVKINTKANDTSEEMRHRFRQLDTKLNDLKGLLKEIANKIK
Where a name gives a salt, the structure may show the parent alone.
Please go through the items and note down their IC50.
Write the value in µM as a bare number.

Task: Query (compound): O=C(NC1(c2ccc(OC(F)(F)F)cc2)CCOc2cccnc21)c1ccc2oc(=O)[nH]c2c1 (centres unmarked) ; field requested: IC50
Result: 0.012

Task: Reported IC50 for O=C(N[C@]1(c2ccc(OC(F)(F)F)c(F)c2)CCOc2cccnc21)N1CCCC1 : what is it?
Result: 0.085

Task: Which IC50 value belongs to COC(=O)c1ccc(C(=O)NC2(c3ccc(OC(F)(F)F)c(F)c3)CCOc3cccnc32)nc1 (centres unmarked) ?
Result: 0.019

Task: Record request: IC50 value, item O=C(N[C@]1(c2ccc(OC(F)(F)F)cc2)CCOc2cccnc21)c1cccc2[nH]cnc12 [Example 238, formate]
Result: 0.0414

Task: Value lookup for IC50; key = Cc1cc(C(=O)N[C@]2(c3ccc(OC(F)(F)F)c(F)c3)CCOc3cccnc32)ccc1C(=O)O
Result: 0.016

Task: Requested field: IC50. Item: O=C(N[C@]1(c2ccc(OC(F)(F)F)cc2)CCOc2cccnc21)c1ccnc2[nH]ccc12 [Example 218, formate]
Result: 0.01

Task: Reported IC50, compound CN(C)C(=O)c1cccc(-c2ccc([C@@]3(NC(=O)c4ccc(F)cc4)CCOc4cccnc43)cc2)c1 : ____
Result: 2.6

Task: Can you look up the measured IC50 of O=C(N[C@]1(c2ccc(OC(F)(F)F)cc2)CCOc2cccnc21)c1cn2ncccc2n1 [Example 243, formate] for me?
Result: 0.0166

The origin of these recorded values is patent US20150031668A1.
